Source of measurements: paper PMC4723341

- Assayed target: DNA polymerase activity of HIV-1 group O RT and wild-type and mutant HIV-1 group M subtype B RTs
- Assay details: RDDP assays, HIV-1 group O RT and wild-type and mutant HIV-1 group M subtype B RTs together
- Protocol conditions: wild-type and mutant (K103N, Y181C, Y188L) group M subtype B RTs, read-out: IC50 RDDP, range over all enzymes
pIC50: −log10 of the molar value.
Recorded metric: pIC50

In: Entry under review: `N#Cc1ccc(-c2csc(NN=C3C(=O)Nc4ccccc43)n2)cc1` . Reported pIC50?
Out: 4.70 to 5.27

* * *

- Assayed target: HIV-1 RT-associated RNase H activity, K103N RT (Human immunodeficiency virus type 1 group M subtype B, UniProt P04585, K690N)
- Construct: The 1:1 ration between the p66/p51 subunits was also verified; made in house; host or cells: E. coli M15
- Assay details: RNase H activity assay, K103N RT
- Format: biochemical, HIV-1 group M subtype B
- Protocol conditions: K103N RT; read-out: IC50 RNase H
Recorded metric: pIC50
The read-out pIC50 is expressed as -log10 of concentration in moles per litre.

In: Entry under review: CC(C)c1ccc(O)c(=O)c(O)c1 [BTP, β-thujaplicinol, reference compound] . Reported pIC50?
Out: 6.66

* * *

- Assayed target: HIV-1 RT-associated RDDP activity, G231A RT (Human immunodeficiency virus type 1 group M subtype B, UniProt P04585, G818A)
- Construct: The 1:1 ration between the p66/p51 subunits was also verified
- Assay details: biochemical
Recorded metric: IC50
Param answer (str): number followed by unit.

In: Entry under review: `N#Cc1ccc(-c2csc(NN=C3C(=O)Nc4ccccc43)n2)cc1` . Reported IC50?
Out: 10.8 µM

* * *

- Assayed target: HIV-1 RT-associated RDDP activity, W229A RT (Human immunodeficiency virus type 1 group M subtype B, UniProt P04585, W816A)
- Construct: The 1:1 ration between the p66/p51 subunits was also verified
- Assay details: biochemical
Recorded metric: IC50 (µM)
All answers are understood in µM, so give the number only.

In: Entry under review: `N#Cc1ccc(-c2csc(NN=C3C(=O)Nc4ccccc43)n2)cc1` . Reported IC50?
Out: 15.4

* * *

- Assayed target: HIV-1 RT-associated RDDP activity, V106A RT (Human immunodeficiency virus type 1 group M subtype B, UniProt P04585, V693A)
- Construct: The 1:1 ration between the p66/p51 subunits was also verified
- Assay details: biochemical
Recorded metric: IC50 (µM)
All answers are understood in µM, so give the number only.

In: Entry under review: `N#Cc1ccc(-c2csc(NN=C3C(=O)Nc4ccccc43)n2)cc1` . Reported IC50?
Out: 25.1

* * *

- Assayed target: HIV-1 RT-associated RDDP activity, K103N RT (Human immunodeficiency virus type 1 group M subtype B, UniProt P04585, K690N)
- Construct: The 1:1 ration between the p66/p51 subunits was also verified
- Assay details: RDDP activity assay, K103N RT
Recorded metric: IC50 (µM)
All answers are understood in µM, so give the number only.

In: Entry under review: N#Cc1ccc(-c2csc(NN=C3C(=O)Nc4ccccc43)n2)cc1 [RMNC6] . Reported IC50?
Out: 13.6

* * *

- Assayed target: HIV-1 RT-associated RDDP activity, Y181C RT (Human immunodeficiency virus type 1 group M subtype B, UniProt P04585, Y768C)
- Construct: The 1:1 ration between the p66/p51 subunits was also verified
- Assay details: RDDP activity assay, Y181C RT
Recorded metric: IC50 (µM)
All answers are understood in µM, so give the number only.

In: Entry under review: N#Cc1ccc(-c2csc(NN=C3C(=O)Nc4ccccc43)n2)cc1 [RMNC6] . Reported IC50?
Out: 5.4
